Listing of recorded inhibition at 0.05 µM by entry.
Biological target: RBL-1 5-lipoxygenase (Rattus norvegicus, UniProt P12527)
Construct: 5-Lipoxygenase enzyme was prepared as a 10,000g supernatant from RBL-1 cells; endogenous in cells; host or cells: RBL-1 cells (10,000g supernatant of the homogenate)
Sequence (P12527 1-673): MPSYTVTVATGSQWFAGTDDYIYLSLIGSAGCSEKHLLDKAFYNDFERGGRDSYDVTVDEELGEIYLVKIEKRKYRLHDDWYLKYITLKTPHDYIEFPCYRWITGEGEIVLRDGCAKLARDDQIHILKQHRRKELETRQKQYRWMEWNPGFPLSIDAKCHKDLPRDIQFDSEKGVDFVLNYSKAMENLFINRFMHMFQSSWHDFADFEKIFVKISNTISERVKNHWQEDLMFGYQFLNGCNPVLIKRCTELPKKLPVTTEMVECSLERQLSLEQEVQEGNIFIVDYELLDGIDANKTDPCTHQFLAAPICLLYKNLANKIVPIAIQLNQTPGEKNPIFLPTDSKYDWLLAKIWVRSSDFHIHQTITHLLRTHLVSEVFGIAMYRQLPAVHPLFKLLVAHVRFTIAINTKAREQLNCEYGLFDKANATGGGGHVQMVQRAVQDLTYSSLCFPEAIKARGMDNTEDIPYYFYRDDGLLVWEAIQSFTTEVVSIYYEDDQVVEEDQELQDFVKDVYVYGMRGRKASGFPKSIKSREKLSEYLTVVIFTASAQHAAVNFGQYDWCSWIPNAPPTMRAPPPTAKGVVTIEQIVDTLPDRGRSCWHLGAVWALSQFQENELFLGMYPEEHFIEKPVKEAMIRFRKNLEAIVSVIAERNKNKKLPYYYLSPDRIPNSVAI
Test: RBL-1 5-lipoxygenase screen
Type: biochemical
Settings: compound concentration 0.05 µM; 10,000g supernatant from RBL-1 cells; formation of 5-HETE and 5,12-diHETE
Numbers only; they are read as %.

Ask: # return recorded inhibition at 0.05 µM for input Cc1ccc(O)c(NCCc2ccccc2)c1
Result: 86

Ask: Give the measured inhibition at 0.05 µM for Cc1ccc(O)c(NCc2ccc([N+](=O)[O-])cc2)c1
Result: 80

Ask: Output inhibition at 0.05 µM of Cc1ccc(O)c(NCc2ccc(Cl)cc2)c1
Result: 91.4

Ask: State its inhibition at 0.05 µM for this compound: Cc1ccc(O)c(NCc2ccc(C(C)C)cc2)c1
Result: 80

Ask: Could you please provide reported inhibition at 0.05 µM for Cc1ccc(CNc2cc(C)ccc2O)cc1 ? Thanks!
Result: 93.4

Ask: # return recorded inhibition at 0.05 µM for input CCc1ccc(O)c(NCc2ccccc2)c1
Result: 20

Ask: Report measured inhibition at 0.05 µM; entry is Cc1ccc(O)c(NCc2ccc(C#N)cc2)c1
Result: 42.8

Ask: Give reported inhibition at 0.05 µM value for Oc1ccc(Cl)cc1NCc1ccccc1
Result: 81

Ask: Could you please provide reported inhibition at 0.05 µM for Cc1ccc(O)c(NCc2cccs2)c1 ? Thanks!
Result: 49.7

Ask: Tell me inhibition at 0.05 µM reported for Cc1ccc(O)c(NCc2ccco2)c1 [Example 9, 2-[(2-furyl)methyl]amino-4-methylphenol]
Result: 31.4

Ask: Report measured inhibition at 0.05 µM; entry is Cc1ccc(O)c(NCc2cccc(F)c2)c1
Result: 76
